Measured protein stability index, listed per entry.
B1: CD207 (parent)
chain: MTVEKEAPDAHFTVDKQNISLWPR

- Variants of: B1
- PROTOCOL: protein stability index of a GFP-peptide fusion (GPS, HEK-293T) (PSI 1-6); higher = more stable;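 further: lentivirally expressed fusions sorted by FACS into six bins by GFP to DsRed ratio, PSI derived from sequencing read proportions per bin multiplied by bin number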
- TEST CONTEXT: c terminus: a fixed tail appended
Form field (numeric): enter value without unit.

Example variants with recorded protein stability index:
>>> df
   mutant_id  numeric_readout
0       I19N             4.39
1       Q17L             2.64
2       A10W              2.4
3       K16Y             2.83
4       N18L             2.88
5       N18D             3.21
6       A10Y              3.3
7       T13F             3.13

Exam item: Param item = `R24H` ; retrieve measured protein stability index.
Marked response: 3.69

Exam item: Lookup `E4V`
Marked response: 3.38

Exam item: Similarly, `D9P` ?
Marked response: 2.95

Exam item: Proceed to `V3E`
Marked response: 3.72

Exam item: Then this variant: `T2R`
Marked response: 2.83

Exam item: What about `A10R` ?
Marked response: 2.48

Exam item: Moving on to `D15G`
Marked response: 2.92

Exam item: Param item: `E6M`
Marked response: 2.52

Exam item: Cool, now `M1F`
Marked response: 2.11

Exam item: What about this variant? `P23I`
Marked response: 2.91

Exam item: What do we get for `K5P` ?
Marked response: 3.48

Exam item: How about this variant: `N18S`
Marked response: 3.56
